- PROTOCOL: Human HepG2 cell viability assay in 384 well format
- Assay type: toxicity, cell-based
- Design: dose 125 nL, time 70.5 hour; concentration not given beside the values
- MEASUREMENT PARAMETERS: HepG2 cells, read-out: Inhibition
Attribute: cytotoxicity at 70.5 h

{"MOLECULE": "c1ccc(O[C@H]2COCCN(Cc3c[nH]c4ccccc34)C2)cc1", "cytotoxicity at 70.5 h, %": -6.76}
{"MOLECULE": "Cn1c(=O)oc2ccc(S(=O)(=O)N3CCC(c4ccccc4)C3)cc21 (stereo unspecified)", "cytotoxicity at 70.5 h, %": 28.3}
{"MOLECULE": "CN(C)Cc1cncc2c1CCN(C1CCOCC1)C2", "cytotoxicity at 70.5 h, %": -8.32}
{"MOLECULE": "CCn1ccnc1CN1CCC(CNC(=O)c2ccc(C)nc2)C1 (stereo unspecified)", "cytotoxicity at 70.5 h, %": -9.04}
{"MOLECULE": "Cc1ccc(C(CNCC2CC2)N2CCOCC2)s1 (stereo unspecified)", "cytotoxicity at 70.5 h, %": 11.7}
{"MOLECULE": "CN(Cc1ccncc1)C(=O)NC1CCCN(c2ncccn2)C1 (stereo unspecified)", "cytotoxicity at 70.5 h, %": -1.22}

====

Measured cytotoxicity at 70.5 h values are reported for all entries that follow.
- PROTOCOL: Human HepG2 cell viability assay in 384 well format
- Format: toxicity, cell-based
- Design: dose 125 nL, time 70.5 hour; concentration not given beside the values
- MEASUREMENT PARAMETERS: HepG2 cells, read-out: Inhibition
PROPERTY LABEL: cytotoxicity at 70.5 h (%)

{"COMPOUND": "Fc1ccc(CN2CCCN(Cc3cscn3)CC2)cc1", "UNIT SYMBOL": "%", "VALUE": 23.4}
{"COMPOUND": "CNc1ncc2c(n1)CN(CCc1ccc(F)cc1)C2=O", "UNIT SYMBOL": "%", "VALUE": -10.4}
{"COMPOUND": "CCc1n[nH]c(C2CN(C(=O)c3cnc[nH]3)CCO2)n1 (configuration not stated)", "UNIT SYMBOL": "%", "VALUE": -15.6}
{"COMPOUND": "CC(C)c1ncc2c(n1)CN(Cc1nnc(Cc3ccccc3)o1)CC2", "UNIT SYMBOL": "%", "VALUE": -5.27}
{"COMPOUND": "Cc1ncsc1-c1nnc(C2CCN(Cc3ccccc3)CC2)o1", "UNIT SYMBOL": "%", "VALUE": -1.36}
{"COMPOUND": "CCNC(=O)N1CC2=CC(C)(C)COc3ccc(OC)c(c32)C1", "UNIT SYMBOL": "%", "VALUE": -6.22}
{"COMPOUND": "CCOc1cc(C(=O)N2CC=C(c3ccc(O)cc3)CC2)ccn1", "UNIT SYMBOL": "%", "VALUE": -14.3}
{"COMPOUND": "CN1CCCC(c2cccc(-c3cccc(F)c3)n2)C1 (configuration not stated)", "UNIT SYMBOL": "%", "VALUE": -5.53}
{"COMPOUND": "CC(C)n1nc2c(cc1=O)CN(Cc1ccc(-n3cccn3)cc1)CC2", "UNIT SYMBOL": "%", "VALUE": 24.1}
{"COMPOUND": "CC(=O)N1CCCC(C(=O)Nc2ccccc2Cc2ccccc2)C1 (configuration not stated)", "UNIT SYMBOL": "%", "VALUE": 3.24}
{"COMPOUND": "COc1ccc(-c2nnsc2C(=O)N2CCSCC2)cc1", "UNIT SYMBOL": "%", "VALUE": -8.21}
{"COMPOUND": "COc1ccc(N2CCNC(C(N)=O)C2)cc1 (configuration not stated)", "UNIT SYMBOL": "%", "VALUE": 18.6}

These measurements were taken from ChEMBL document CHEMBL3507680.
